subject.of.test: T1, Clathrin heavy chain terminal domain (Rattus norvegicus, UniProt P11442)
T1 chain: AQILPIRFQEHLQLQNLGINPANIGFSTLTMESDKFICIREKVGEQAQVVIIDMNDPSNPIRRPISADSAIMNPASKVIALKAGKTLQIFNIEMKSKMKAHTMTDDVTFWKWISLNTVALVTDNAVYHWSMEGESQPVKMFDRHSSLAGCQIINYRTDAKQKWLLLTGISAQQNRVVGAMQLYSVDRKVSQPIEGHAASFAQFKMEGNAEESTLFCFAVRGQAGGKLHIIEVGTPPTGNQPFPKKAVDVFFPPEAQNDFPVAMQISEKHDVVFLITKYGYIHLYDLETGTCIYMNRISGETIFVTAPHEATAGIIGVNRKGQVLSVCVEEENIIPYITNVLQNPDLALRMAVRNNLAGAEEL
assay.text: NMR
measured.parameter: Kd (µM)

TAVDAFAAPSPASTASPAKA [AP180 M5 fragment, binding site 1]
160

Numbers sourced from paper PMC2981644.
